measured.property: melting point

Cl.N#CCn1c(=O)c(-c2ccccc2Cl)cc2cnc(NC3CCOCC3)nc21 :: 230.2 to 230.4 °C
O=c1c(-c2ccccc2Cl)cc2cnc(N[C@H]3CC[C@H](O)CC3)nc2n1CC(F)(F)F :: 227.2 to 230.4 °C
Cl.Cn1c(=O)c(-c2ccccc2Cl)cc2cnc(NC3CCC4(CC3)OCC(CO)CO4)nc21 (centres unmarked) :: 146 to 150 °C
CCCS(=O)(=O)N1CCC(Nc2ncc3cc(-c4ccccc4OC)c(=O)n(C)c3n2)CC1.Cl :: 59.7 to 63.8 °C

Now for the molecule whose melting point we want.
**Query** Identify measured melting point associated with COC(=O)O[C@H]1CC[C@H](Nc2ncc3cc(-c4ccccc4Cl)c(=O)n(C)c3n2)CC1.Cl
**Result** 213.9 to 214.4 °C
